Target: mouse SR-BI (Mus musculus, UniProt Q61009)
Assay: DiI-HDL uptake assay
Format: cell-based
Details: DiI uptake assay; average of at least two measurements (Table 4, various analogs)
property_name: IC50 (nM)
Write the answer as a number in nM, unit excluded.

Entry under review: "C[C@@H]1CN([C@H](C)CO)C(=O)c2cc(NC(=O)C3CCCCC3)ccc2O[C@H]1CN(C)S(=O)(=O)c1cccc(Cl)c1" . Reported IC50?
800

----------
Target: mouse SR-BI (Mus musculus, UniProt Q61009)
Sequence (Q61009 1-509): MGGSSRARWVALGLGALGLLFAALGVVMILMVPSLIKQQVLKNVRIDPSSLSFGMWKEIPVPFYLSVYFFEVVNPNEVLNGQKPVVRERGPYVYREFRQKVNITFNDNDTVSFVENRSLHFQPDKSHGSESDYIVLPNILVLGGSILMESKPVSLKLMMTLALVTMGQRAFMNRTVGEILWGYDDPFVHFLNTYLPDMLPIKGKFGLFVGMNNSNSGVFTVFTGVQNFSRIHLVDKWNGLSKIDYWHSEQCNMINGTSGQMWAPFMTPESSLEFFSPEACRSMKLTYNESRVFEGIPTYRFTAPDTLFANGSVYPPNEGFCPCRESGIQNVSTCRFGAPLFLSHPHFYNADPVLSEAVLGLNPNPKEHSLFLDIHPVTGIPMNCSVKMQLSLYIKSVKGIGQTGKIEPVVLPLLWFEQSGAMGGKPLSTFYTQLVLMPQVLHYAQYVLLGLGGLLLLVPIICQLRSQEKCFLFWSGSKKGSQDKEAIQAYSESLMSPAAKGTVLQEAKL
Test: DiI-HDL uptake assay
Assay type: cell-based
property_name: IC50 (nM)
Write the answer as a number in nM, unit excluded.

GET /values?readout=IC50&system=mouse SR-BI (Mus musculus, UniProt Q61009)&item= C[C@@H]1CN([C@H](C)CO)C(=O)c2cc(NC(=O)Cc3cn(C)c4ccccc34)ccc2O[C@H]1CN(C)S(=O)(=O)c1ccc(Cl)cc1 [Compound 1a]
460

Reference for the values: paper PMC4469080
